Where do the numbers come from? From the supplement of paper PMC9112550.

Test system: Escherichia coli TOP10;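 further: peptides expressed intracellularly from a pBAD plasmid library in pooled LB shake-flask culture, induced with 0.3% L-arabinose, DNA abundance read by NGS, three biological replicates, DESeq2 with apeglm shrinkage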
experiment.summary: shrunken log2 fold change of peptide-encoding DNA abundance (4.5 h post-induction vs induction); higher = less antimicrobial activity (less host growth inhibition)
study.conditions: time post-induction: 4.5 h; library: site-saturation at positions 5, 18, 19, 20
Here, each record is paired with measured shrunken log2 fold change data.
// return a plain number; no unit text

These recorded examples may help you get a feel for the data.
RRIRWRPPRLPRPRPRPWYPPRP: 0.0299
RRIRDRPPRLPRPRPRPCLEPRP: 0.103
RRIRERPPRLPRPRPRPSPPPRP: -0.013
RRIRCRPPRLPRPRPRPRHWPRP: 0.261

### Prompt Using known records, supply shrunken log2 fold change for `RRIRRRPPRLPRPRPRPAEAPRP`
### Response 0.148

### Prompt Dear colleague, please send me the reported shrunken log2 fold change for `RRIRQRPPRLPRPRPRPELTPRP` when you can.
### Response 0.232

### Prompt Given the sequence `RRIRRRPPRLPRPRPRPAKMPRP` , write its reported shrunken log2 fold change.
### Response 0.113

### Prompt Provide one value: measured shrunken log2 fold change of `RRIRHRPPRLPRPRPRPFRNPRP`
### Response -0.221

### Prompt For the sequence `RRIRVRPPRLPRPRPRPICKPRP` , give its reported shrunken log2 fold change.
### Response -0.149

### Prompt Please supply the value of reported shrunken log2 fold change for the item `RRIRKRPPRLPRPRPRPNMWPRP`
### Response -0.109

### Prompt Give reported shrunken log2 fold change value for `RRIRYRPPRLPRPRPRPFGWPRP`
### Response 0.102

### Prompt Annotate the sequence `RRIRVRPPRLPRPRPRPELHPRP` with its measured shrunken log2 fold change.
### Response 0.133

### Prompt Provide one value: measured shrunken log2 fold change of `RRIRKRPPRLPRPRPRPELQPRP`
### Response 0.307

### Prompt Please indicate shrunken log2 fold change recorded for `RRIRIRPPRLPRPRPRPPPTPRP`
### Response 0.834

### Prompt Name the recorded shrunken log2 fold change of the item `RRIRTRPPRLPRPRPRPVRFPRP` in your answer.
### Response 0.0687
